Biological target: extracellular domain of human BLyS protein (hBLyS-ECD), His-tagged, Ala134-Leu285 (human, UniProt Q9Y275 134-285)
Sequence (Q9Y275 134-285): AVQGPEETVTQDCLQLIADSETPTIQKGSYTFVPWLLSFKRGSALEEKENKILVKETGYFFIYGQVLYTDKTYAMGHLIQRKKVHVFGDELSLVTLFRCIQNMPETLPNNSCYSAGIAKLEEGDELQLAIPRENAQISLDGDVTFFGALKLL
Experiment: cell-based or functional assay
MEASURED_ENDPOINT: OD450 nm (as headed), mouse B lymphocyte proliferation; antibody 0.000256 nM

Measured OD450 nm (as headed), mouse B lymphocyte proliferation; antibody 0.000256 nM, c67A2E1D10 (antibody, V domains shown) VH: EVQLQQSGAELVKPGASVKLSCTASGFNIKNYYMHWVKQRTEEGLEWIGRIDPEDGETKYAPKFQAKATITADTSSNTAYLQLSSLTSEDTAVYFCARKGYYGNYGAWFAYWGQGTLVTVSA VL: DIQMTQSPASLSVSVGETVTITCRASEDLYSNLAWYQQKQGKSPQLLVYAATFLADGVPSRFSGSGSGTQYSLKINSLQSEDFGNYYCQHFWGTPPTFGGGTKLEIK : 4720
